Target: IgA-specific serine endopeptidase autotransporter (Neisseria gonorrhoeae)
Test: Inhibitory concentration against type 1 IgA1 proteinases secreted by Neisseria gonorrhoeae
Peptide text beside a SMILES is read from it.
observation_type: pIC50
Scale: negative log10 of molar concentration, which is what pIC50 denotes.

Please give the measured pIC50 for this compound: C[C@@H](O)[C@H](NC(=O)[C@@H](N)CO)C(=O)N1CCC[C@H]1C(=O)N1CCC[C@H]1C(=O)O (H-STPP-OH)
4.14

Please give the measured pIC50 for this compound: C[C@@H](O)[C@H](NC(=O)[C@@H]1CCCN1)C(=O)N1CCC[C@H]1C(=O)N[C@@H](CO)C(N)=O (H-PTPS-NH2)
5.28

====

Please go through the items and note down their pIC50.
Biological target: IgA-specific serine endopeptidase autotransporter (Neisseria gonorrhoeae, UniProt P09790)
Sequence (P09790 whole entry): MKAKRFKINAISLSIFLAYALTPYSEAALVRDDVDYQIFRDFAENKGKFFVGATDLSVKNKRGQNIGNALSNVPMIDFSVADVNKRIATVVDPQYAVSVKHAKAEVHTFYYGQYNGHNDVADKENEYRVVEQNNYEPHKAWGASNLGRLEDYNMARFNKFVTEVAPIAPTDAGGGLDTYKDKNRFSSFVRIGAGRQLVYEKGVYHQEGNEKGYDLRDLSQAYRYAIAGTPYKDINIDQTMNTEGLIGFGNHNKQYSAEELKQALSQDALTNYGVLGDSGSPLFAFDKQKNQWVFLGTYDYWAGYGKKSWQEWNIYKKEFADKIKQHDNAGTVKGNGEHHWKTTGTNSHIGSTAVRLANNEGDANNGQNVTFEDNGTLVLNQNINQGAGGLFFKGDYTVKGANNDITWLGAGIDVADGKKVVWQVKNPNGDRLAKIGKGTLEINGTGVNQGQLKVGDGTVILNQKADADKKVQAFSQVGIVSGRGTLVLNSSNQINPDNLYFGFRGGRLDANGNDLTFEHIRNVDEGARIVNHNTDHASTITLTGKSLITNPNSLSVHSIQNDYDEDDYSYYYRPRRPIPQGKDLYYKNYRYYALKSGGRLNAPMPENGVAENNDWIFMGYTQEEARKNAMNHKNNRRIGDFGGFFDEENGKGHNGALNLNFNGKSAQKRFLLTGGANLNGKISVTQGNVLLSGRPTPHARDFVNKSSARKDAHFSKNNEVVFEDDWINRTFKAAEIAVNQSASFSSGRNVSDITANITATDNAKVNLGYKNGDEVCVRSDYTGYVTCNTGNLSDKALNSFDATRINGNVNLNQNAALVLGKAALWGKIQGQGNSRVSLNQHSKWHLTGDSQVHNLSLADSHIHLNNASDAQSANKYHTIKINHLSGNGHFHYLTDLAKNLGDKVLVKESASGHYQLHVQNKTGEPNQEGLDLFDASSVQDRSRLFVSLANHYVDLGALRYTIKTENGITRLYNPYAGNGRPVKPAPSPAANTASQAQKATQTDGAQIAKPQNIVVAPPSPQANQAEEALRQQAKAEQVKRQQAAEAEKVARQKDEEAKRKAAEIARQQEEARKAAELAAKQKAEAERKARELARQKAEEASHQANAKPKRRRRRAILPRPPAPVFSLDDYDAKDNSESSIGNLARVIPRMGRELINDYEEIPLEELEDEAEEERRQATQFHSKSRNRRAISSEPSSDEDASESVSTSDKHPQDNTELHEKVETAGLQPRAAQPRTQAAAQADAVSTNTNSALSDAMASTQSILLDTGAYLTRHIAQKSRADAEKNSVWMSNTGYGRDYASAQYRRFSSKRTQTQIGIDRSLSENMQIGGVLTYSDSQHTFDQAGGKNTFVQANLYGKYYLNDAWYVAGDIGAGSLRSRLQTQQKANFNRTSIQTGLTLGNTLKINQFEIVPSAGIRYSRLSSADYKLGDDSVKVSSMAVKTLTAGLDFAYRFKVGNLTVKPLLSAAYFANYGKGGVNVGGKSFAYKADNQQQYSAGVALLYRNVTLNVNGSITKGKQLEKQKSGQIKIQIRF
Assay: Inhibitory concentration against type 1 IgA1 proteinases secreted by Neisseria gonorrhoeae
pIC50: −log10 of the molar value. Peptide text beside a SMILES is read from it.

Please give the measured pIC50 for this molecule: CC(=O)N1CCC[C@H]1C(=O)N[C@H](C(=O)N1CCC[C@H]1C(=O)N[C@@H](CO)C(N)=O)[C@@H](C)O (Ac-PTPS-NH2)
< 3.00

Please give the measured pIC50 for this molecule: CC(=O)N[C@H](C(=O)N1CCC[C@H]1C(=O)N1CCC[C@H]1C(=O)N[C@H](C(=O)O)[C@@H](C)O)[C@@H](C)O (Ac-TPPT-OH)
< 3.00

Please give the measured pIC50 for this molecule: CC(=O)N1CCC[C@H]1C(=O)N[C@H](C(=O)N1CCC[C@H]1C(=O)N[C@@H](CO)C(=O)O)[C@@H](C)O (Ac-PTPS-OH)
4.62

Please give the measured pIC50 for this molecule: CC(=O)N[C@H](C(=O)N1CCC[C@H]1C(=O)N[C@@H](CO)C(=O)N1CCC[C@H]1C(N)=O)[C@@H](C)O (Ac-TPSP-NH2)
< 3.00

Please give the measured pIC50 for this molecule: C[C@@H](O)[C@H](NC(=O)[C@@H]1CCCN1C(=O)[C@@H]1CCCN1)C(=O)N1CCC[C@H]1C(N)=O [PROLYLPROLYLTHREONYLPROLINAMIDE(PPTPNH2)] (H-PPTP-NH2)
< 3.00

Please give the measured pIC50 for this molecule: CC(=O)N[C@H](C(=O)N1CCC[C@H]1C(=O)N1CCC[C@H]1C(=O)N[C@H](C(N)=O)[C@@H](C)O)[C@@H](C)O (Ac-TPPT-NH2)
< 3.00

Please give the measured pIC50 for this molecule: CC(=O)N1CCC[C@H]1C(=O)N1CCC[C@H]1C(=O)N[C@H](C(=O)N1CCC[C@H]1C(=O)O)[C@@H](C)O (Ac-PPTP-OH)
< 3.00

Please give the measured pIC50 for this molecule: CC(=O)N1CCC[C@H]1C(=O)N[C@@H](CO)C(=O)N1CCC[C@H]1C(=O)N[C@@H](CO)C(N)=O (Ac-PSPS-NH2)
< 3.00

Please give the measured pIC50 for this molecule: NC(=O)[C@H](CO)NC(=O)[C@@H]1CCCN1C(=O)[C@H](CO)NC(=O)[C@@H]1CCCN1 (H-PSPS-NH2)
< 3.00

Please give the measured pIC50 for this molecule: C[C@@H](O)[C@H](N)C(=O)N1CCC[C@H]1C(=O)N[C@@H](CO)C(=O)N1CCC[C@H]1C(=O)O (H-TPSP-OH)
4.48

Please give the measured pIC50 for this molecule: CC(=O)N[C@@H](CO)C(=O)N[C@H](C(=O)N1CCC[C@H]1C(=O)N1CCC[C@H]1C(=O)O)[C@@H](C)O (Ac-STPP-OH)
5.01

Please give the measured pIC50 for this molecule: CC(=O)N[C@@H](CO)C(=O)N[C@H](C(=O)N1CCC[C@H]1C(=O)N1CCC[C@H]1C(N)=O)[C@@H](C)O (Ac-STPP-NH2)
< 3.00

Please give the measured pIC50 for this molecule: C[C@@H](O)[C@H](NC(=O)[C@@H]1CCCN1C(=O)[C@@H]1CCCN1)C(=O)N1CCC[C@H]1C(=O)O (H-PPTP-OH)
4.39

====

Please go through the items and note down their IC50.
Biological target: IgA-specific serine endopeptidase autotransporter (Neisseria gonorrhoeae)
Experiment: Inhibitory concentration against type 1 IgA1 proteinases secreted by Neisseria gonorrhoeae
Peptide text beside a SMILES is read from it.
Give just the numeric value; µM need not be written.

Please give the measured IC50 for this compound: CC(=O)N1CCC[C@H]1C(=O)N[C@@H](CO)C(=O)N1CCC[C@H]1C(=O)N[C@@H](CO)C(=O)O (Ac-PSPS-OH)
675

Please give the measured IC50 for this compound: C[C@@H](O)[C@H](N)C(=O)N1CCC[C@H]1C(=O)N1CCC[C@H]1C(=O)N[C@H](C(N)=O)[C@@H](C)O (H-TPPT-NH2)
419

====

Target: UniProtKB P09790
Assay: Inhibitory concentration against type 1 IgA1 proteinases secreted by Neisseria gonorrhoeae
Peptide text beside a SMILES is read from it.
observation_type: IC50

Please give the measured IC50 for this molecule: CC(=O)N[C@H](C(=O)N1CCC[C@H]1C(=O)N[C@@H](CO)C(=O)N1CCC[C@H]1C(=O)O)[C@@H](C)O (Ac-TPSP-OH)
183 µM

Please give the measured IC50 for this molecule: C[C@@H](O)[C@H](N)C(=O)N1CCC[C@H]1C(=O)N1CCC[C@H]1C(=O)N[C@H](C(=O)O)[C@@H](C)O (H-TPPT-OH)
> 1000 µM

Please give the measured IC50 for this molecule: C[C@@H](O)[C@H](N)C(=O)N1CCC[C@H]1C(=O)N[C@@H](CO)C(=O)N1CCC[C@H]1C(N)=O [THREONYLPROLYLSERYLPROLINAMIDE(TPSPNH2)] (H-TPSP-NH2)
> 1000 µM
